System: NOMO1
Test: cell viability relative to DMSO control; higher = less cytotoxic
Settings: RPMI 5 mM glucose + 10% FBS; 48 h; 0.00234 µM
Items are presented alongside their recorded cell viability.
PROPERTY_LABEL: cell viability (%)

CPD_SMILES: Cc1cc(C(=O)N2CCN(c3cccc(Cl)c3)CC2)n(-c2ccccc2)n1
TESTED_SYSTEM: NOMO1
UNIT_NAME: %
OBSERVED_MEASUREMENT: 99.9

CPD_SMILES: NC(=O)c1cccc2cn(-c3ccc([C@@H]4CCCNC4)cc3)nc12
TESTED_SYSTEM: NOMO1
UNIT_NAME: %
OBSERVED_MEASUREMENT: 82.2

CPD_SMILES: COC[C@H](c1ccc(C(F)(F)F)cc1)N1CCN(C2(C)CCN(C(=O)c3c(C)ncnc3C)CC2)C[C@H]1C.O=C(O)/C=C\C(=O)O
TESTED_SYSTEM: NOMO1
UNIT_NAME: %
OBSERVED_MEASUREMENT: 95.7

CPD_SMILES: CCN(C(=O)C/1=C(O)/C2=C(C=CC=C2Cl)N(C)C1=O)C3=CC=CC=C3
TESTED_SYSTEM: NOMO1
UNIT_NAME: %
OBSERVED_MEASUREMENT: 88.8

CPD_SMILES: CCOC(=O)c1cncn1[C@H](C)c1ccccc1
TESTED_SYSTEM: NOMO1
UNIT_NAME: %
OBSERVED_MEASUREMENT: 116

* * *

Items are presented alongside their recorded cell viability.
Test system: P12-Ichikawa
Assay: cell viability relative to DMSO control; higher = less cytotoxic
Conditions: HPLM + 10% dialyzed FBS; 48 h; 46.1 µM
PROPERTY_LABEL: cell viability

COMPOUND: Cc1ccc([S+](=O)([O-])Nc2nc3ccccc3nc2Nc2ccc3nsnc3c2)cc1
OBSERVED_MEASUREMENT: 13.3%

COMPOUND: ClC1=CC\2=C(OC3=C(C=CC=C3)\N=C2N4CCNCC4)C=C1
OBSERVED_MEASUREMENT: 95.5%

COMPOUND: CCC(=C/[C@H](C)C/C=C/C(C)=C/[C@@H](C)C(=O)[C@@H](C)[C@H](O)[C@@H](C)C/C(C)=C/C(=O)O)/C=C/[C@@H]1OC(=O)C=C[C@@H]1C
OBSERVED_MEASUREMENT: 7.83%

COMPOUND: CO/C1=C/C(C)=C\[C@@H](C)[C@@H](O)[C@@H](C)C/C(C)=C\C=C/[C@H](OC)[C@@H]([C@@H](C)[C@@H](O)[C@H](C)[C@@]2(O)C[C@@H](O)[C@H](C)[C@@H](C(C)C)O2)OC1=O
OBSERVED_MEASUREMENT: 33%

COMPOUND: NC(=O)C1CCCc2c1[nH]c1ccc(Cl)cc21 (stereo unspecified)
OBSERVED_MEASUREMENT: 38.2%

COMPOUND: COc1ccc([C@@H]2CC(=O)c3c(O)cc(O[C@@H]4O[C@H](CO[C@@H]5O[C@@H](C)[C@H](O)[C@@H](O)[C@H]5O)[C@@H](O)[C@H](O)[C@H]4O)cc3O2)cc1O
OBSERVED_MEASUREMENT: 116%

COMPOUND: CCC(=O)N[C@H]1CC[C@H](C(=O)N(C)c2ccc(-c3nc4ccccc4o3)cc2)C1
OBSERVED_MEASUREMENT: 84.4%

COMPOUND: CCOC(=O)c1cncn1[C@H](C)c1ccccc1
OBSERVED_MEASUREMENT: 106%

COMPOUND: C[C@]12CC[C@@H]3c4ccc(O)cc4CC[C@H]3[C@@H]1C[C@@H](O)[C@@H]2O
OBSERVED_MEASUREMENT: 104%

COMPOUND: CC/1=C(/C(CC(=O)N1)C2=CC=C(C=C2)C(F)(F)F)C(=O)NC3=C(F)C=C4[NH]N=CC4=C3 (stereo unspecified)
OBSERVED_MEASUREMENT: 44.6%

COMPOUND: COc1cc2nc(-c3cc(F)ccc3O)nc(N[C@@H]3CNC[C@H]3C(C)(C)O)c2cc1OC
OBSERVED_MEASUREMENT: 56.5%

COMPOUND: CN[C@@H]1Cc2cccc3[nH]c(=O)n(c23)C1
OBSERVED_MEASUREMENT: 111%

COMPOUND: O=C(Oc1ccc([N+](=O)[O-])cc1)N1CCC(C(O)(c2ccc3c(c2)OCO3)c2ccc3c(c2)OCO3)CC1
OBSERVED_MEASUREMENT: 69.3%

COMPOUND: Cc1cc(Nc2cc(CN3CCOCC3)c3nc(C)c(Cc4ccc(Cl)cc4F)n3n2)[nH]n1
OBSERVED_MEASUREMENT: 78.4%

COMPOUND: O=C(c1ccc(F)c(F)c1Nc1ccc(I)cc1F)N1CC(O)([C@@H]2CCCCN2)C1
OBSERVED_MEASUREMENT: 11.1%

COMPOUND: O=C1Nc2ccc(I)cc2/C1=C/c1cc(Br)c(O)c(Br)c1
OBSERVED_MEASUREMENT: 86.4%

* * *

Test system: SEM cells
Experiment: cell viability relative to DMSO control; higher = less cytotoxic
Details: RPMI 5 mM glucose + 10% dialyzed FBS; 48 h; 1.71 µM
PROPERTY_LABEL: cell viability (%)

CPD_SMILES: Cc1[nH]c(/C=C2\C(=O)Nc3ccccc32)c(C)c1CCC(=O)O
UNIT_NAME: %
OBSERVED_MEASUREMENT: 26.5
//
CPD_SMILES: CC(C)c1cnn2c(NCc3ccccc3)cc(NCCCCCCN)nc12
UNIT_NAME: %
OBSERVED_MEASUREMENT: 115
//
CPD_SMILES: Nc1nnc(-c2cccc(Cl)c2Cl)c(N)n1
UNIT_NAME: %
OBSERVED_MEASUREMENT: 101
//
CPD_SMILES: NC(=O)c1cccc2nc(-c3ccc([C@H]4CCCN4)cc3F)[nH]c12
UNIT_NAME: %
OBSERVED_MEASUREMENT: 64.8
//
CPD_SMILES: Nc1cccc2c1CN([C@H]1CCC(=O)NC1=O)C2=O
UNIT_NAME: %
OBSERVED_MEASUREMENT: 103
//
CPD_SMILES: CCCCCCCCCC(=O)N[C@@H](Cc1c[nH]c2ccccc12)C(=O)N[C@H](CC(N)=O)C(=O)N[C@@H](CC(=O)O)C(=O)N[C@@H]1C(=O)NCC(=O)N[C@@H](CCCN)C(=O)N[C@@H](CC(=O)O)C(=O)N[C@H](C)C(=O)N[C@@H](CC(=O)O)C(=O)NCC(=O)N[C@H](CO)C(=O)N[C@@H]([C@@H](C)CC(=O)O)C(=O)N[C@@H](CC(=O)c2ccccc2N)C(=O)O[C@@H]1C
UNIT_NAME: %
OBSERVED_MEASUREMENT: 103

* * *

Test system: P12-Ichikawa
Experiment: AUC of viability dose-response curve (% viability x log10 dose units); higher = less sensitive
Conditions: RPMI 5 mM glucose + 10% dialyzed FBS; 48 h

COMPOUND: CN1CCCC(CC1)N2\N=C(CC3=CC=C(Cl)C=C3)/C4=C(C=CC=C4)C2=O (centres undefined)
AUC of viability dose-response curve: 461

COMPOUND: CCCCC(C=O)NC(=O)C(CC(C)C)NC(=O)OCc1ccccc1 (centres undefined)
AUC of viability dose-response curve: 377

COMPOUND: CCC(=O)N[C@H]1CC[C@H](C(=O)N(C)c2ccc(-c3nc4ccccc4o3)cc2)C1
AUC of viability dose-response curve: 453

COMPOUND: O=C(Nc1ncc(-c2cc(C(F)F)nn2-c2c(Cl)cccc2Cl)s1)C1CC1
AUC of viability dose-response curve: 345

COMPOUND: COc1cc2c(Nc3ccc(Br)cc3F)ncnc2cc1OCC1CCN(C)CC1
AUC of viability dose-response curve: 398

COMPOUND: NC(=O)c1cccc2nc(-c3ccc([C@H]4CCCN4)cc3F)[nH]c12
AUC of viability dose-response curve: 465

COMPOUND: CC1(N2CCC(n3c([C@@H]4CCCNC4)nc4ccccc43)CC2)CCCCCCC1
AUC of viability dose-response curve: 456

COMPOUND: COC1=C2C[C@@H](C)C[C@H](OC)[C@H](O)[C@@H](C)/C=C(\C)[C@H](OC(N)=O)[C@@H](OC)/C=C/C=C(\C)C(=O)NC(=CC1=O)C2=O
AUC of viability dose-response curve: 399

COMPOUND: CN1c2ccccc2C(=O)N2CCc3c([nH]c4ccccc34)C21 (centres undefined)
AUC of viability dose-response curve: 451

* * *

Items are presented alongside their recorded cell viability.
Test system: SEM cells
Experiment: cell viability relative to DMSO control; higher = less cytotoxic
Conditions: HPLM + 10% dialyzed FBS; 48 h; 0.00234 µM
PROPERTY_LABEL: cell viability (%)

CPD_SMILES: COC1=CC=CC(=C1N)\C2=C\C(=O)C3=C(O2)C=CC=C3
PROPERTY_LABEL: cell viability
UNIT_NAME: %
OBSERVED_MEASUREMENT: 123
//
CPD_SMILES: COC1=CC=C(C=C1O)C/2=C/C(=O)C3=C(O2)C=C(O)C=C3O
PROPERTY_LABEL: cell viability
UNIT_NAME: %
OBSERVED_MEASUREMENT: 89.5
//
CPD_SMILES: CN(C)CCN(C)C(=O)c1ccc(NC(=O)Nc2ccc(-c3nc(N4CCOCC4)c4ccn(CC(F)(F)F)c4n3)cc2)cc1
PROPERTY_LABEL: cell viability
UNIT_NAME: %
OBSERVED_MEASUREMENT: 100
//
CPD_SMILES: C[C@]12CC[C@@H]3c4ccc(O)cc4CC[C@H]3[C@@H]1C[C@@H](O)[C@@H]2O
PROPERTY_LABEL: cell viability
UNIT_NAME: %
OBSERVED_MEASUREMENT: 116
//
CPD_SMILES: O=C1Nc2ccc(I)cc2/C1=C/c1cc(Br)c(O)c(Br)c1
PROPERTY_LABEL: cell viability
UNIT_NAME: %
OBSERVED_MEASUREMENT: 107
